test system: A-427; assay: relative viability (nuclei count vs DMSO), 5 days (fraction); higher = more cells survive; conditions: first compound 0.08 µM
Each item that follows carries a reported relative viability.
I only need the number, thanks.

Example results:
[
  {
    "molecule": "Cc1cnc(-c2cnc(NCCNc3ccc(C#N)cn3)nc2-c2ccc(Cl)cc2Cl)[nH]1 + Nc1ncn([C@H]2C[C@H](O)[C@@H](CO)O2)c(=O)n1 [Decitabine] (partner 2 µM)",
    "target.entity": "A-427",
    "property.measured": "relative viability",
    "numeric.result": 0.535
  },
  {
    "molecule": "O=c1[nH]c2ccccc2n1C1CCN(CCCC(c2ccc(F)cc2)c2ccc(F)cc2)CC1 [Pimozide] + Cc1nc(NC(=O)N2CCC[C@H]2C(N)=O)sc1-c1ccnc(C(C)(C)C(F)(F)F)c1 [Alpelisib] (partner 2 µM)",
    "target.entity": "A-427",
    "property.measured": "relative viability",
    "numeric.result": 1.08
  },
  {
    "molecule": "Cc1cnc(-c2cnc(NCCNc3ccc(C#N)cn3)nc2-c2ccc(Cl)cc2Cl)[nH]1 + Nc1nc2[nH]cc(CCc3ccc(C(=O)N[C@@H](CCC(=O)O)C(=O)O)cc3)c2c(=O)[nH]1 [Pemetrexed] (partner 0.2 µM)",
    "target.entity": "A-427",
    "property.measured": "relative viability",
    "numeric.result": 0.981
  }
]

Query: relative viability; subject: Cc1cnc(-c2cnc(NCCNc3ccc(C#N)cn3)nc2-c2ccc(Cl)cc2Cl)[nH]1 + CCNC(=O)c1noc(-c2cc(C(C)C)c(O)cc2O)c1-c1ccc(CN2CCOCC2)cc1 [Luminespib] (partner 0.01 µM)
0.954

Query: relative viability; subject: O=c1[nH]c2ccccc2n1C1CCN(CCCC(c2ccc(F)cc2)c2ccc(F)cc2)CC1 [Pimozide] + COc1cccc2cc(-c3nc([C@H]4CC[C@H](C(=O)O)CC4)n4ncnc(N)c34)[nH]c12 [OSI-027] (partner 0.5 µM)
0.433

====

tested on: H3255; assay: relative viability (nuclei count vs DMSO), 5 days (fraction); higher = more cells survive; conditions: first compound 2.53 µM
property.measured: relative viability
I only need the number, thanks.

Example results:
[
  {
    "compound": "Cc1cnc(-c2cnc(NCCNc3ccc(C#N)cn3)nc2-c2ccc(Cl)cc2Cl)[nH]1 + CCNC(=O)c1noc(-c2cc(C(C)C)c(O)cc2O)c1-c1ccc(CN2CCOCC2)cc1 [Luminespib] (partner 0.01 µM)",
    "target.entity": "H3255",
    "property.measured": "relative viability",
    "numeric.result": 0.835
  },
  {
    "compound": "Cc1cnc(-c2cnc(NCCNc3ccc(C#N)cn3)nc2-c2ccc(Cl)cc2Cl)[nH]1 + Cc1nc(NC(=O)N2CCC[C@H]2C(N)=O)sc1-c1ccnc(C(C)(C)C(F)(F)F)c1 [Alpelisib] (partner 2 µM)",
    "target.entity": "H3255",
    "property.measured": "relative viability",
    "numeric.result": 0.73
  }
]

Query: relative viability; subject: O=c1[nH]c2ccccc2n1C1CCN(CCCC(c2ccc(F)cc2)c2ccc(F)cc2)CC1 [Pimozide] + CC1(C)CCC(c2ccc(Cl)cc2)=C(CN2CCN(c3ccc(C(=O)NS(=O)(=O)c4ccc(N[C@H](CCN5CCOCC5)CSc5ccccc5)c(S(=O)(=O)C(F)(F)F)c4)cc3)CC2)C1 [Navitoclax] (partner 0.5 µM)
0.551
